meta.source: PubChem BioAssay (NCI)

Test system: IGROV1 ovarian
Method summary: NCI tumour cell line growth inhibition, 48 h
Listed here: items and their measured TGI.
Supply the numeric figure in µM, leaving out any unit text.

Compound: O=C(c1ccc(F)cc1)c1cccc(C(=O)c2ccc(F)cc2)n1
Target desc: IGROV1 ovarian
TGI (µM): 79.3
//
Compound: COc1cc(C2c3cc4c(cc3OC(N3CCCC3)C2C)OCO4)cc(OC)c1OC (stereo unspecified)
Target desc: IGROV1 ovarian
TGI (µM): 30.2

# evaluate next
Problem: Write down TGI measured for item `CC(C)(C)C#CC1=C(Br)C(=O)OC1`
Result: 23.2

###

System: MALME-3M melanoma
Method summary: NCI tumour cell line growth inhibition, 48 h
Property label: TGI

Compound: C/C(=N/NC(N)=S)c1ccc2ccccc2c1
Test value: > 100 µM

Compound: COc1cc(/C=C/C(=O)O)ccc1C(=O)O/C=C/c1ccccc1
Test value: > 100 µM

Compound: O=C1NCCCc2nonc21
Test value: > 100 µM

Below: the item to evaluate.
Problem: Give a short answer stating reported TGI for `COc1cc2c(cc1OCCCCOc1cc(-c3ccc(F)cc3)nc(C)n1)N=C[C@@H]1CCCN1C2=O` .
Result: 1.82 µM
